Tested on: NCI-H1755
Assay: relative viability (nuclei count vs DMSO), 5 days (fraction); higher = more cells survive
Conditions: first compound 0.253 µM
Provide the reported relative viability of each item.
Give bare numbers.

# compound, measurement
records = [
    ("O=c1[nH]c2ccccc2n1C1CCN(CCCC(c2ccc(F)cc2)c2ccc(F)cc2)CC1 [Pimozide] + NC(=O)Nc1cc(-c2cccc(F)c2)sc1C(=O)N[C@H]1CCCNC1 [AZD7762] (partner 0.2 µM)", 0.42),
    ("O=c1[nH]c2ccccc2n1C1CCN(CCCC(c2ccc(F)cc2)c2ccc(F)cc2)CC1 [Pimozide] + COc1cccc2cc(-c3nc([C@H]4CC[C@H](C(=O)O)CC4)n4ncnc(N)c34)[nH]c12 [OSI-027] (partner 0.5 µM)", 0.687),
    ("O=c1[nH]c2ccccc2n1C1CCN(CCCC(c2ccc(F)cc2)c2ccc(F)cc2)CC1 [Pimozide] + N=C(N)NC(=N)NCCc1ccccc1 [Phenformin] (partner 250 µM)", 0.587),
    ("O=c1[nH]c2ccccc2n1C1CCN(CCCC(c2ccc(F)cc2)c2ccc(F)cc2)CC1 [Pimozide] + CC(=O)c1c(C)c2cnc(Nc3ccc(N4CCNCC4)cn3)nc2n(C2CCCC2)c1=O [Palbociclib] (partner 0.5 µM)", 0.337),
]

We next turn to a different compound, shown below.
Quick check: relative viability on NCI-H1755, item O=c1[nH]c2ccccc2n1C1CCN(CCCC(c2ccc(F)cc2)c2ccc(F)cc2)CC1 [Pimozide] + COc1cc2c(Oc3ccc(NC(=O)C4(C(=O)Nc5ccc(F)cc5)CC4)cc3F)ccnc2cc1OCCCN1CCOCC1 [Foretinib] (partner 0.25 µM) ?
0.928

---

Tested on: NCI-H460
Assay: relative viability (nuclei count vs DMSO), 5 days (fraction); higher = more cells survive
Details: first compound 5 µM
measurement-kind: relative viability

Lab note: each compound below needs its relative viability filled in.
1. O=C(O)CCCCC(CCSCc1ccccc1)SCc1ccccc1 (configuration not stated) [CPI-613] + O=C(c1cc(Cc2n[nH]c(=O)c3ccccc23)ccc1F)N1CCN(C(=O)C2CC2)CC1 [Olaparib] (partner 8 µM)
2. O=C(O)CCCCC(CCSCc1ccccc1)SCc1ccccc1 (configuration not stated) [CPI-613] + Nc1ncn([C@H]2C[C@H](O)[C@@H](CO)O2)c(=O)n1 [Decitabine] (partner 2 µM)
3. O=C(O)CCCCC(CCSCc1ccccc1)SCc1ccccc1 (configuration not stated) [CPI-613] + CC1(C)CCC(c2ccc(Cl)cc2)=C(CN2CCN(c3ccc(C(=O)NS(=O)(=O)c4ccc(N[C@H](CCN5CCOCC5)CSc5ccccc5)c(S(=O)(=O)C(F)(F)F)c4)cc3)CC2)C1 [Navitoclax] (partner 0.5 µM)
4. O=C(O)CCCCC(CCSCc1ccccc1)SCc1ccccc1 (configuration not stated) [CPI-613] + Nc1nc2[nH]cc(CCc3ccc(C(=O)N[C@@H](CCC(=O)O)C(=O)O)cc3)c2c(=O)[nH]1 [Pemetrexed] (partner 0.2 µM)
5. O=C(O)CCCCC(CCSCc1ccccc1)SCc1ccccc1 (configuration not stated) [CPI-613] + COc1cc2c(Oc3ccc(NC(=O)C4(C(=O)Nc5ccc(F)cc5)CC4)cc3F)ccnc2cc1OCCCN1CCOCC1 [Foretinib] (partner 0.25 µM)
6. O=C(O)CCCCC(CCSCc1ccccc1)SCc1ccccc1 (configuration not stated) [CPI-613] + CC(C)C[C@H](NC(=O)[C@H](Cc1ccccc1)NC(=O)c1cnccn1)B(O)O [Bortezomib] (partner 0.002 µM)
7. O=C(O)CCCCC(CCSCc1ccccc1)SCc1ccccc1 (configuration not stated) [CPI-613] + CC(=O)c1c(C)c2cnc(Nc3ccc(N4CCNCC4)cn3)nc2n(C2CCCC2)c1=O [Palbociclib] (partner 0.5 µM)

1. 0.37
2. 0.513
3. 1.12
4. 0.0641
5. 0.979
6. 1.07
7. 0.197

---

Would you mind telling me the reported relative viability of each entry?
Test system: EPLC-272H
Assay: relative viability (nuclei count vs DMSO), 5 days (fraction); higher = more cells survive
Conditions: first compound 0.08 µM

Some solved cases for reference:
# compound, relative viability
measured = [
    ("Cc1cnc(-c2cnc(NCCNc3ccc(C#N)cn3)nc2-c2ccc(Cl)cc2Cl)[nH]1 + O=C(CCCCCCC(=O)Nc1ccccc1)NO [Vorinostat] (partner 1 µM)", 0.658),
    ("O=c1[nH]c2ccccc2n1C1CCN(CCCC(c2ccc(F)cc2)c2ccc(F)cc2)CC1 [Pimozide] + Cc1cc(Nc2cc(N3CCN(C)CC3)nc(Sc3ccc(NC(=O)C4CC4)cc3)n2)n[nH]1 [Tozasertib] (partner 0.1 µM)", 0.193),
]

relative viability for O=c1[nH]c2ccccc2n1C1CCN(CCCC(c2ccc(F)cc2)c2ccc(F)cc2)CC1 [Pimozide] + CC(=O)c1c(C)c2cnc(Nc3ccc(N4CCNCC4)cn3)nc2n(C2CCCC2)c1=O [Palbociclib] (partner 0.5 µM) ?
0.309

---

System: NCI-H1355
Assay: relative viability (nuclei count vs DMSO), 5 days (fraction); higher = more cells survive
Conditions: first compound 2.53 µM
measurement-kind: relative viability

# compound, target-system, measurement
records = [
    ("Cc1cnc(-c2cnc(NCCNc3ccc(C#N)cn3)nc2-c2ccc(Cl)cc2Cl)[nH]1 + CS(=O)(=O)CCNCc1ccc(-c2ccc3ncnc(Nc4ccc(OCc5cccc(F)c5)c(Cl)c4)c3c2)o1 [Lapatinib] (partner 2 µM)", "NCI-H1355", 0.909),
]

In the following, a different compound is considered.
Would you mind telling me what relative viability value was observed for O=c1[nH]c2ccccc2n1C1CCN(CCCC(c2ccc(F)cc2)c2ccc(F)cc2)CC1 [Pimozide] + CS(=O)(=O)N1CCN(Cc2cc3nc(-c4cccc5[nH]ncc45)nc(N4CCOCC4)c3s2)CC1 [Pictilisib] (partner 1 µM) ?
0.466

---

Test system: LOU-NH91
Assay: relative viability (nuclei count vs DMSO), 5 days (fraction); higher = more cells survive
Settings: first compound 0.02 µM
measurement-kind: relative viability

Take a look at these entries with their results.
# molecule, relative viability
data = [
    ("CC(=O)O[C@@]12CO[C@@H]1C[C@H](O)[C@@]1(C)C(=O)[C@H](O)C3=C(C)[C@@H](OC(=O)[C@H](O)[C@@H](NC(=O)OC(C)(C)C)c4ccccc4)C[C@@](O)([C@@H](OC(=O)c4ccccc4)[C@H]21)C3(C)C [Docetaxel] + CC(=O)Nc1cccc(-n2c(=O)n(C3CC3)c(=O)c3c(Nc4ccc(I)cc4F)n(C)c(=O)c(C)c32)c1 [Trametinib] (partner 0.02 µM)", 0.354),
    ("CC(=O)O[C@@]12CO[C@@H]1C[C@H](O)[C@@]1(C)C(=O)[C@H](O)C3=C(C)[C@@H](OC(=O)[C@H](O)[C@@H](NC(=O)OC(C)(C)C)c4ccccc4)C[C@@](O)([C@@H](OC(=O)c4ccccc4)[C@H]21)C3(C)C [Docetaxel] + Cc1nc(NC(=O)N2CCC[C@H]2C(N)=O)sc1-c1ccnc(C(C)(C)C(F)(F)F)c1 [Alpelisib] (partner 2 µM)", 0.368),
    ("CC(=O)O[C@@]12CO[C@@H]1C[C@H](O)[C@@]1(C)C(=O)[C@H](O)C3=C(C)[C@@H](OC(=O)[C@H](O)[C@@H](NC(=O)OC(C)(C)C)c4ccccc4)C[C@@](O)([C@@H](OC(=O)c4ccccc4)[C@H]21)C3(C)C [Docetaxel] + CCNC(=O)c1noc(-c2cc(C(C)C)c(O)cc2O)c1-c1ccc(CN2CCOCC2)cc1 [Luminespib] (partner 0.01 µM)", 0.212),
]

relative viability for CC(=O)O[C@@]12CO[C@@H]1C[C@H](O)[C@@]1(C)C(=O)[C@H](O)C3=C(C)[C@@H](OC(=O)[C@H](O)[C@@H](NC(=O)OC(C)(C)C)c4ccccc4)C[C@@](O)([C@@H](OC(=O)c4ccccc4)[C@H]21)C3(C)C [Docetaxel] + CC(C)C[C@H](NC(=O)[C@H](Cc1ccccc1)NC(=O)c1cnccn1)B(O)O [Bortezomib] (partner 0.002 µM) ?
0.345

---

Test system: HCC-366
Assay: relative viability (nuclei count vs DMSO), 5 days (fraction); higher = more cells survive
Conditions: first compound 0.0002 µM
measurement-kind: relative viability

# get_value(readout='relative viability', item= CC(=O)O[C@@]12CO[C@@H]1C[C@H](O)[C@@]1(C)C(=O)[C@H](O)C3=C(C)[C@@H](OC(=O)[C@H](O)[C@@H](NC(=O)OC(C)(C)C)c4ccccc4)C[C@@](O)([C@@H](OC(=O)c4ccccc4)[C@H]21)C3(C)C [Docetaxel] + NC(=O)Nc1cc(-c2cccc(F)c2)sc1C(=O)N[C@H]1CCCNC1 [AZD7762] (partner 0.2 µM) )
0.206
